# key: entry, value: growth inhibition
Assay: NCI Yeast Anticancer Drug Screen. Data for the rad50 strain (AID 155);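 note: 0% = growth of vehicle-only cultures of the same strain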
Conditions: S. cerevisiae rad50 strain growth inhibition; at 5.0 µM (retest, dose inferred, filed as 0.5); hits give high values
The panel holds about 79,000 compounds, 15% with a hit somewhere; the sample as a whole holds those more often.
value_kind: growth inhibition (%)

INSERT INTO measurements (compound, endpoint_value) VALUES
  ('Oc1c(Cl)cc(Cl)cc1Cl', -1),
  ('[C-]#[O+].[C-]#[O+].[Ir].[O-]c1ccc2ccccc2c1N=Nc1ccccc1', -4),
  ('[O]=[Sb][c]1ccc(Cl)cc1', 5),
  ('O=[N+]([O-])c1oc2ccc3ccccc3c2c1CCO', 89),
  ('CCC[CH2][Sn]1([CH2]CCC)[O]CC[S]1', 83),
  ('N.N.N.N.N.N#N.[Cl-].[Os+7]', 18),
  ('O=[N+]([O-])/C=C/c1ccccc1', 94),
  ('O=[N+]([O-])c1ccc(N2CCC(CCCC3CCN(c4ccc([N+](=O)[O-])cc4[N+](=O)[O-])CC3)CC2)c([N+](=O)[O-])c1', 98),
  ('N#C[S-].[Ce+3].c1ccc(-c2ccccn2)nc1.c1ccc(-c2ccccn2)nc1.c1ccc(-c2ccccn2)nc1', 63),
  ('CCCCCCCCCCCCNCCc1ccccc1', 99),
  ('CCNCC(=O)O[C@]1(CC)C(=O)OCc2c1cc1n(c2=O)Cc2cc3ccccc3nc2-1', 72),
  ('CCC(=O)C(CCN1CCC2(CCCc3ccccc32)CC1)(c1ccccc1)c1ccccc1', -2),
  ('CN1CN(c2ccccc2)C2(CCN(C3Nc4ccccc4O3)CC2)C1=O (configuration not stated)', 7),
  ('O=C(c1ccccc1)c1c(CC(O)c2ccncc2)n(C(=O)c2ccccc2)c2ccccc12 (configuration not stated)', 18),
  ('CNC1=C(C)C(=O)C2=C(C1=O)C(COC(N)=O)C1(O)C3C(CN21)N3C (configuration not stated)', 13),
  ('c1cc[c]([Sn]([c]2ccccc2)([c]2ccccc2)[c]2ccccc2)cc1', -2),
  ('O=C1C(=O)c2ccccc2-c2ccccc21.O=C1C(=O)c2ccccc2-c2ccccc21.[Hg]', 100),
  ('[Au+].c1c[n-]cn1.c1ccc([PH+](c2ccccc2)c2ccccc2)cc1', 99),
  ('CC/C(=C\c1ccc(Cl)cc1)[N+](=O)[O-]', 34),
  ('c1cc2c(c(NC3=NCCN3)c1)CCCC2', 12),
  ('CC(Cl)CN(C)C (configuration not stated)', 24),
  ('CC(=O)[CH-]C(C)=O.CC(=O)[CH-]C(C)=O.[CH2-]CCC.[CH2-]CCC.[Sn+4]', 58),
  ('CCCCCCCCCC[Se]C#N', 30),
  ('CCC[CH2][Sn]([CH2]CCC)([S]C#N)[S]C#N', 95),
  ('COc1c(NC(=O)CC(C)=O)[c]([Hg][O]C(C)=O)c(OC)c(Cl)[c]1[Hg][O]C(C)=O', 29),
  ('CC1(C)OCC(COC(=O)C=[N+]=[N-])O1 (configuration not stated)', 0),
  ('CC(C)(C)C1=CC(=C/C=C/c2cc(C(C)(C)C)[o+]c(C(C)(C)C)c2)C=C(C(C)(C)C)O1', 99),
  ('COC1=C(C)C(=O)C2=C(C1=O)C(CO)N1C(C#N)C3CC4C(C1C2N1CCOC41)N3C (configuration not stated)', 39),
  ('Oc1c(Cl)cc(-c2cc(Cl)c(O)c(Cl)c2)cc1Cl', 95),
  ('[Pt].c1ccc(P(CCP(c2ccccc2)c2ccccc2)CCP(c2ccccc2)c2ccccc2)cc1', 22),
  ('O=c1oc2ccccc2c(O)c1C(c1ccc2ccccc2c1)c1c(O)c2ccccc2oc1=O', 47),
  ('CCN1/C(=C\c2ccc3cc(C)ccc3[n+]2CC)[Se]c2ccccc21', 98),
  ('CCCCCCCCCCCCCCCc1cccc(O)c1O', -2),
  ('CC(=O)OC1CCC2(C)C3CCC4(C)C(OC(=O)c5ccccc5)CCC4C3CC(Br)C2(O)C1 (configuration not stated)', 35),
  ('CC(=O)O[C@H]1CC[C@H]2[C@@H]3CCC4=CC(=O)CC[C@@H]4[C@H]3CC[C@]12C', 2),
  ('O=S(=O)(c1ccccc1)N1C2C3CCC(CC3)C21 (configuration not stated)', -1),
  ('CN(C)CCSC1=Nc2ccc(Cl)cc2C(c2ccccc2Cl)=NC1', 12),
  ('O=C(O)C1C2c3ccccc3C(c3ccccc32)C1Br (configuration not stated)', -13),
  ('C/C(=N\NS(=O)(=O)c1ccc(C)cc1)C(CN1CCOCC1)C(c1ccccc1)c1c(O)c2ccccc2oc1=O (configuration not stated)', 15),
  ('C/C(=N\N=C(N)N)C(CN1CCOCC1)C(c1ccccc1)c1c(O)c2ccccc2oc1=O (configuration not stated)', 78),
  ('N#C[SH2+].N#C[SH2+].N#C[SH2+].N#C[SH2+].[Cu+2].c1ccc(C[P+](c2ccccc2)(c2ccccc2)c2ccccc2)cc1', 14),
  ('C[CH2][Sn]([Cl])([CH2]C)[O][Sn]([Cl])([CH2]C)[CH2]C', 6);

Data credit: PubChem BioAssay (NCI)
